system: furin, P09958;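 also: purified furin at 1:10 enzyme:substrate in 50 mM HEPES pH 7.5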
Sequence (P09958 whole entry): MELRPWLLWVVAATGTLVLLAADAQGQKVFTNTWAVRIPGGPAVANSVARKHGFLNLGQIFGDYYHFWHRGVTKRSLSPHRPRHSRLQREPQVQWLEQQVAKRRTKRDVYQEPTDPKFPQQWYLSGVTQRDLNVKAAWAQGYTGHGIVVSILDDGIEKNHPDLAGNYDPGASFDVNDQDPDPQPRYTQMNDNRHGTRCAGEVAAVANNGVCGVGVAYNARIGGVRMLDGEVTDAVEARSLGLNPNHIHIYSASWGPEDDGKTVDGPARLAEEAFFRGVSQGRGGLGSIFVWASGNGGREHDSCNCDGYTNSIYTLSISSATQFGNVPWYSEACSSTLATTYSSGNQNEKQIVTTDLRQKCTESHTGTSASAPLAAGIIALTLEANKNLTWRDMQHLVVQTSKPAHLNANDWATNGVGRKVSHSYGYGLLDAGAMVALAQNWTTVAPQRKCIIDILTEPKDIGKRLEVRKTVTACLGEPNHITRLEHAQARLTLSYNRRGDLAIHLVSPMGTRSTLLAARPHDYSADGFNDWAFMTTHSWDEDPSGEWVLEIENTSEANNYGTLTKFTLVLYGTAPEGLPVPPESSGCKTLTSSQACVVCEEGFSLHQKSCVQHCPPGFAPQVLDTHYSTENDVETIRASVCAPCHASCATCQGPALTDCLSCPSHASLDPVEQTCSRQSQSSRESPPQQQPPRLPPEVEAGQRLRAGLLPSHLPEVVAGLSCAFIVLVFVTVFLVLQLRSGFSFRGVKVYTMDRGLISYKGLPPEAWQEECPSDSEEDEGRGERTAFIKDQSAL
assayProcedure: furin cleavage Z-score vs untreated control; higher = more cleavage, active = 3.5 or more, inactive = 1 or less, 8 variable residues between constant flanks
condition: 15 min
The list shows a part of the results. No count for the full screen is at hand.
Possible outcomes: active, inactive

[
  {
    "constructSequence": "CARKKRGYRDAGNASASA [FS-1856]",
    "class": "active"
  },
  {
    "constructSequence": "CADNEVVTSTAGNASASA [HC2301]",
    "class": "inactive"
  },
  {
    "constructSequence": "CARKKREIRSAGNASASA [FS-2962]",
    "class": "active"
  },
  {
    "constructSequence": "CARKKKGKADAGNASASA [FS-2690]",
    "class": "inactive"
  },
  {
    "constructSequence": "CALAAGVGIYAGNASASA [HC1660]",
    "class": "inactive"
  },
  {
    "constructSequence": "CAELIEANLLAGNASASA [HC1273]",
    "class": "inactive"
  }
]
